Reported EC50 is given for each of the following molecules.
- Test system: A549
- PROCEDURE SUMMARY: Cytotoxicity against human A549 cells after 48 hrs by MTT assay
- Type: functional, cell-based
- MEASUREMENT SETUP: A549, 48 h
A number alone suffices; assume µM.

Consider the following illustrative entries.
INSERT INTO assay_data (smi, tested_system, obs_value) VALUES
  ('CO[C@H]1O[C@H](COc2cccc(C(C)C)c2)[C@@H](O)[C@H](O)[C@H]1Oc1ccc(OC2CCCCC2)cc1', 'A549', 30),
  ('CO[C@H]1O[C@H](COc2ccc(C3CCCCC3)cc2)[C@@H](O)[C@H](O)[C@H]1Oc1ccc2c(c1)CCCC2', 'A549', 17),
  ('CO[C@H]1O[C@H](COc2ccc(-c3ccccc3)cc2)[C@@H](O)[C@H](O)[C@H]1Oc1ccccc1C(C)C', 'A549', 33);

// next item, EC50 requested
Exam item: EC50 for `CO[C@H]1O[C@H](COc2ccc(C3CCCCC3)cc2)[C@@H](O)[C@H](O)[C@H]1Oc1ccc(OC2CCCCC2)cc1` ?
Marked response: 12
